Values were extracted from PubChem BioAssay (NCI).

Test system: HCC-2998 colon
Test: NCI-60 one-dose screen, 48 h (100 = growth as untreated, 0 = no growth, -100 = all killed)
Details: 10 µM unless noted
This is part of a sample that, as a whole, favours compounds with a hit. Of some 83,000 tested, about 20% had one in any assay.
measurement name: growth (%)
Give just the numeric value; % need not be written.

**Query** Find the measured growth: item CC[C@]12C=CCN3CC[C@]4(C(=C(C(=O)OC)C1)Nc1cc(OC)c([C@@H]5[C@H]6O[C@H]6[C@@]6(CC)CC(C(=O)OC)=C7Nc8cc(O)ccc8[C@@]78CCN5[C@@H]68)cc14)[C@@H]32 , target or system HCC-2998 colon.
**Result** -76.3

**Query** Form: Entry = COc1ccc(OC)c(Cn2cc(C#N)c(N)c2C(=O)c2ccc(Br)cc2)c1 | System = HCC-2998 colon | growth = ____
**Result** 71.8

**Query** Quick check: growth on HCC-2998 colon, item O=c1ccc(Cn2c(C(F)(F)F)cc3c(Cl)ncnc32)c[nH]1 ?
**Result** 40.4

Further cases:
**Query** Request: growth, test system HCC-2998 colon, entry COc1ccc(/C=C/c2nc3ccccc3c(=O)n2CC(=O)Nc2ccccc2)cc1
**Result** 80.2

**Query** Form entry - test system: HCC-2998 colon; read-out: growth; compound: Cc1ccc2nc(NC(=O)Nc3cccc(Cl)c3)sc2c1
**Result** 122

**Query** Could you share what growth was measured for COc1cc(NC(=O)C(C)C)ccc1C(=O)NC(=S)Nc1ccc(S(N)(=O)=O)cc1 , tested on HCC-2998 colon?
**Result** 116

**Query** growth of COc1ccc2[nH]c(O)c(N=Nc3nc(-c4ccc(C#N)cc4)cs3)c2c1 on HCC-2998 colon?
**Result** 90.8

**Query** Param readout= growth; system= HCC-2998 colon; entry= Cc1ccc(C(=O)Nc2cccc(C(=O)NC(=S)Nc3ccc(S(N)(=O)=O)cc3)c2)cc1 ; returns value.
**Result** 95.8

**Query** Which measured growth belongs to C=CC(=O)N1CCN(c2ccc3nc4c(nc3c2C(F)(F)F)C(=O)c2ncccc2C4=O)CC1 , tested on HCC-2998 colon?
**Result** 5.17

###

Test system: BT-549 breast
Experiment: NCI-60 one-dose screen, 48 h (100 = growth as untreated, 0 = no growth, -100 = all killed)
Conditions: 10 µM unless noted
This is part of a sample that, as a whole, favours compounds with a hit. Of some 83,000 tested, about 20% had one in any assay.
Examples of molecules with documented growth follow.
// note: answer is a bare numeric in %

**Query** Form: Entry = CC1=C(C(=O)OC(C)C)C(c2ccc(O)cc2)NC(=O)N1 (stereo not given) | System = BT-549 breast | growth = ____
**Result** 96.1

**Query** What growth appears in the records for this molecule with BT-549 breast? C=CC[n+]1cccc2c3ccccc3ccc21
**Result** 9.92

**Query** Any idea what growth came out for COc1ccc(-c2cc(C(=O)N=Nc3c(O)[nH]c4ccc(Cl)cc34)c3ccccc3n2)cc1 on BT-549 breast?
**Result** 107

Next:
**Query** Please provide the recorded growth for CNS(=O)(=O)N1CCc2c(Br)c3c(c(OC)c2C1CCc1ccccc1)OCO3 (stereo not given) , tested on BT-549 breast.
**Result** -68.8
